MEASUREMENT_TARGET: T1, human CD112R antigen protein huCD112R-His (Acro Biosysterm, PVG-H52H4) (human, UniProt Q6DKI7 41-171)
T1 construct: purchased; also called human antigen protein; not shown: His tag
T1 sequence (looked up): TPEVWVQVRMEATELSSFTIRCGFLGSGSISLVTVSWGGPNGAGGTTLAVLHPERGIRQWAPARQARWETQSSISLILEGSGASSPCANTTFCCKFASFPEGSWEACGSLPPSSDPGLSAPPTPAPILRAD
ASSAY_SUMMARY: SPR (Biacore X100), antibody captured on Protein A chip, huCD112R-His as analyte, 1:1 Langmuir
ASSAY_READOUT: Kd (nM)
Please respond with the number in nM and leave the unit unwritten.

As a guide, the following entries are already answered.
# BINDER, Kd (nM)
records = [
    ("C1 (antibody, human IgG1, kappa, V domains shown) VH: QVHLQQSGPELVKPGASLKISCKASGYTFTDYYLNWVKQRPGQGLEWIGWIFPGSESTFYNEKFKGKATLTVDKSSSTAYMLLNSLTSEDSAVYFCTRDGGLRGPFDYWGQGTTLTVSS VL: DIQLTQSPSSLSASLGGKVTITCKASQDINKYIAWCQHKPGKGPRLLIHYTSTLHPGIPSRFSGSGSGRDYSFSISNLEPEDSATYYCLQYDYLLTFGGGTKLEIKR", 0.905),
    ("C156 (antibody, human IgG1, kappa, V domains shown) VH: EVQLVESGGGLVKPGGSLRLSCAASGFTFSDYYMYWVRQAPGKGLEWVATISDAGGYTYYPDSVKGRFTISRDNAKNSLYLQMNSLRAEDTAVYFCGREDLWGQGTLVTVSS VL: DIQMTQSPSSLSASVGDRVTITCRASQDIGYSLNWFQQKPGKAPKRLIYATSRLDSGVPKRFSGSGSGTDFTLTISSLQPEDFATYYCLQYASFPYTFGGGTKLEIKR", 0.946),
]

// switching to the query binder
Input line: Quick one: Kd of C14 (antibody, human IgG1, kappa, V domains shown) VH: QVQLQQPGAELVRPGTSVKLSCKASGNTFTSYWMHWVKQRPGQGHEWIGVIDASDSNTKYNQKFKGKATLTVDTSSSTAYMQLSSLTSEDSAVYYCARYYSGSSYGLDYWGQGTTLTVSS VL: DIQMTQTASSLSASLGDRVTISCRASQDISNYLNWYQQKPDGTVKLLIYYTSRLHSGVPSRFSGSGSGTDFSLTITHLEQEDIASYFCQQGNMFPPTFGGGTKLEIKR ?
Output line: 0.0687
